# TARGET_ENTITY: GABAB receptor (Rattus norvegicus, UniProt Q9Z0U4)
# Sequence (Q9Z0U4 20-960): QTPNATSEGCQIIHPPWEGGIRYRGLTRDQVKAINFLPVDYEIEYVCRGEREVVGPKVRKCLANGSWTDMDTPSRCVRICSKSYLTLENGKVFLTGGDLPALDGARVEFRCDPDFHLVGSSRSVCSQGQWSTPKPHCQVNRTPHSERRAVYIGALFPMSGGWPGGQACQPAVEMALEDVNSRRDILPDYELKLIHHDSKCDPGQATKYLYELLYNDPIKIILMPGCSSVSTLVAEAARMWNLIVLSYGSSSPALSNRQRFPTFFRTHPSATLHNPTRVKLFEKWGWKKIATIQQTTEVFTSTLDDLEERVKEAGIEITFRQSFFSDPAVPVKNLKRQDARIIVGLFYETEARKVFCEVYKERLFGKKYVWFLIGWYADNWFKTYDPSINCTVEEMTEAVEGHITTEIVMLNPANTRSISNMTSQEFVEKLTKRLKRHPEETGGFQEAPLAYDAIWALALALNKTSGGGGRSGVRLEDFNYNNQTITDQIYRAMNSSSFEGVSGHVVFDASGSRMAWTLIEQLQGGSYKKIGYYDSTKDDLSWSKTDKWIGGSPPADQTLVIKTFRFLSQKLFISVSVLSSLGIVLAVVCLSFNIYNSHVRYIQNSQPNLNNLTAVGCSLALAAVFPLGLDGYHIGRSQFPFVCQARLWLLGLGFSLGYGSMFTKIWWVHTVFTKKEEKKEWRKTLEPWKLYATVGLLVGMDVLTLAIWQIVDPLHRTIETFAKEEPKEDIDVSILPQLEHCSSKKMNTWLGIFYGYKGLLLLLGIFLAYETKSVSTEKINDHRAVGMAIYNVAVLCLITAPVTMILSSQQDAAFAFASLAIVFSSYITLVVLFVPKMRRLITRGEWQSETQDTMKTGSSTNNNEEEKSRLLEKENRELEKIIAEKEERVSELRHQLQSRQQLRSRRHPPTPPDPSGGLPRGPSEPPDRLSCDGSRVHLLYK
# Sequence (O88871 41-940 partner): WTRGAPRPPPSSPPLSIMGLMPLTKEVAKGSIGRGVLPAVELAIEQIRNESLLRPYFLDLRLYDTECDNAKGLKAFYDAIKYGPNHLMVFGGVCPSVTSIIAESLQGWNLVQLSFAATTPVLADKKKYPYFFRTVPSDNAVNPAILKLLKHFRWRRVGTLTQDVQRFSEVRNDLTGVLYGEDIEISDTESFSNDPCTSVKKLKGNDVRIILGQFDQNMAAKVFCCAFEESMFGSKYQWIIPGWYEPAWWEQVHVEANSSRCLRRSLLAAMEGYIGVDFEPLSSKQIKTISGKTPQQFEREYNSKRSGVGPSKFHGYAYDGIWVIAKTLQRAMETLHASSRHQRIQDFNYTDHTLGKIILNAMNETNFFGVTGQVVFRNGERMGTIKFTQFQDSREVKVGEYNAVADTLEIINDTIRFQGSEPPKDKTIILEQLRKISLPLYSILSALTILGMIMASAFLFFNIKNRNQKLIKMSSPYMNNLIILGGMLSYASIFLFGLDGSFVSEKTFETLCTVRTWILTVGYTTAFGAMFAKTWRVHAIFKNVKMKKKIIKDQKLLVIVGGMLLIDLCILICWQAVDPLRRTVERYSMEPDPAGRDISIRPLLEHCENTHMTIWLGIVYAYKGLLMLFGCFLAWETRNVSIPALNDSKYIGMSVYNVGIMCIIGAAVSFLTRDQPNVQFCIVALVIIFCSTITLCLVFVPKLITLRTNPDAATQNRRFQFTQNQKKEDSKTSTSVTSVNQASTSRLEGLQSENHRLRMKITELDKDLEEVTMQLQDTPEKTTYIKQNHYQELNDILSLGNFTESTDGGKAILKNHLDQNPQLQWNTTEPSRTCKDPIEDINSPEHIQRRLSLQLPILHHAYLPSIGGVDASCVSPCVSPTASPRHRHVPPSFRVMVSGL
pIC50: −log10 of the molar value. Where a name gives a salt, the structure may show the parent alone.
EXPERIMENTAL_READOUT: pIC50

> print(dat)
                                   compound                             target.entity  endpoint.result
1  Cc1cc(COc2cc([C@H](CN)CC(=O)O)ccc2Cl)ccn1 [hydrochloride]  GABAB receptor (Rattus norvegicus, UniProt Q9Z0U4)           > 4.60
2  Cl.NC[C@H](CC(=O)O)c1ccc(Cl)c(-c2cccc(C(=O)O)c2)c1 [Example 25, hydrochloride]  GABAB receptor (Rattus norvegicus, UniProt Q9Z0U4)           > 4.60
3  Cl.NC[C@H](CC(=O)O)c1ccc(Cl)c(-c2ccc(C(=O)O)s2)c1 [Example 67, hydrochloride]  GABAB receptor (Rattus norvegicus, UniProt Q9Z0U4)           > 4.60
4  Cl.NC[C@H](CC(=O)O)c1ccc(Cl)c(-c2cccc([N+](=O)[O-])c2)c1 [Example 37, hydrochloride]  GABAB receptor (Rattus norvegicus, UniProt Q9Z0U4)           > 4.60
5  Cc1ccc(C#N)cc1-c1cc([C@H](CN)CC(=O)O)ccc1Cl.Cl [hydrochloride]  GABAB receptor (Rattus norvegicus, UniProt Q9Z0U4)           > 4.60

Problem: Data request, read-out pIC50, for CN(C)C(=O)c1ccc(-c2cc([C@H](CN)CC(=O)O)ccc2Cl)s1 [hydrochloride]
Solution: > 4.60
